Target: UniProt P30542
Test: Binding assay to the human A1AR ([3H]R-PIA)
Settings: 1 h; 10 μM; [3H]R-PIA (2.0 nM), CHO cells; Table 2; read-out: hA1AR % displ. at 10 μM
Measurement name: inhibition at 10 µM (%)
Write down the numeric answer in % and omit the unit.

Example results:
Smi: CCCCCc1nc2c(Nc3ccc(Cl)c(Cl)c3)nc3ccccc3c2[nH]1
Experimental system: UniProt P30542
inhibition at 10 µM, %: 43.9
--
Smi: COc1ccc(CNc2nc3ccccc3c3[nH]c(C4CCCC4)nc23)cc1
Experimental system: UniProt P30542
inhibition at 10 µM, %: 59
--
Smi: c1ccc(CNc2nc3ccccc3c3[nH]c(C4CCCC4)nc23)cc1
Experimental system: UniProt P30542
inhibition at 10 µM, %: 28
--
Smi: Clc1ccc(Nc2nc3ccccc3c3[nH]c(C4CCCCCC4)nc23)cc1Cl
Experimental system: UniProt P30542
inhibition at 10 µM, %: -4
--
Smi: c1ccc2c(c1)nc(Nc1ccc3cn[nH]c3c1)c1nc(C3CCCC3)[nH]c12
Experimental system: UniProt P30542
inhibition at 10 µM, %: 56
--
Smi: Clc1ccc(Nc2nc3ccccc3c3[nH]c(C4CCCC4)nc23)cc1
Experimental system: UniProt P30542
inhibition at 10 µM, %: 22
--
Smi: Clc1ccc(Nc2nc3ccccc3c3[nH]c(C4CCCC4)nc23)cc1Cl
Experimental system: UniProt P30542
inhibition at 10 µM, %: 15
--
Smi: Clc1ccc(Nc2nc3ccccc3c3[nH]c(-c4ccco4)nc23)cc1Cl
Experimental system: UniProt P30542
inhibition at 10 µM, %: -4

Query: Return reported inhibition at 10 µM; argument: OCc1cccc(Nc2nc3ccccc3c3[nH]c(C4CCCC4)nc23)c1
Reply: 51

----------
Target: human A1AR (Homo sapiens (Human))
Sequence (P30542 whole entry): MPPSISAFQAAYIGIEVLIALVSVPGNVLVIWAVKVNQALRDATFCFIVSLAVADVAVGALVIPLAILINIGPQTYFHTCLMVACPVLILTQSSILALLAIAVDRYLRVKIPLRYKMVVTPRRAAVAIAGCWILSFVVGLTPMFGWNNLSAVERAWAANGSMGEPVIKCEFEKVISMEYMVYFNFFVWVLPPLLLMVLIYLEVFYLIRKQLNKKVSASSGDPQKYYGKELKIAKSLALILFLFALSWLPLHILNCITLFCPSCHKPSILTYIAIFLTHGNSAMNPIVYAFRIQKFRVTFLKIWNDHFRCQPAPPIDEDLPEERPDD
Assay: Binding assay to the human A1AR ([3H]R-PIA)
Details: 1 h; 10 μM; [3H]R-PIA (2.0 nM), CHO cells; Table 2; read-out: hA1AR % displ. at 10 μM
Recorded inhibition at 10 µM by entry
Write down the numeric answer in % and omit the unit.

Example results:
Smi: Clc1ccc(Nc2nc3ccccc3c3[nH]c(C4CCCCC4)nc23)cc1Cl
inhibition at 10 µM, %: -2
//
Smi: c1ccc2c(c1)nc(Nc1ccc3c(c1)CCC3)c1nc(C3CCCC3)[nH]c12
inhibition at 10 µM, %: 21
//
Smi: Clc1ccc(Nc2nc3ccccc3c3[nH]cnc23)cc1Cl
inhibition at 10 µM, %: 1.8
//
Smi: c1ccc2c(c1)nc(Nc1ccc3cc[nH]c3c1)c1nc(C3CCCC3)[nH]c12
inhibition at 10 µM, %: 70
//
Smi: Clc1ccc(Nc2nc3ccccc3c3[nH]c(C4CCC4)nc23)cc1Cl
inhibition at 10 µM, %: -5

Query: Return reported inhibition at 10 µM; argument: c1ccc(CCNc2nc3ccccc3c3[nH]c(C4CCCC4)nc23)cc1
Reply: 52

----------
Target: human A2A AR (Homo sapiens (Human))
Sequence (P29274 whole entry): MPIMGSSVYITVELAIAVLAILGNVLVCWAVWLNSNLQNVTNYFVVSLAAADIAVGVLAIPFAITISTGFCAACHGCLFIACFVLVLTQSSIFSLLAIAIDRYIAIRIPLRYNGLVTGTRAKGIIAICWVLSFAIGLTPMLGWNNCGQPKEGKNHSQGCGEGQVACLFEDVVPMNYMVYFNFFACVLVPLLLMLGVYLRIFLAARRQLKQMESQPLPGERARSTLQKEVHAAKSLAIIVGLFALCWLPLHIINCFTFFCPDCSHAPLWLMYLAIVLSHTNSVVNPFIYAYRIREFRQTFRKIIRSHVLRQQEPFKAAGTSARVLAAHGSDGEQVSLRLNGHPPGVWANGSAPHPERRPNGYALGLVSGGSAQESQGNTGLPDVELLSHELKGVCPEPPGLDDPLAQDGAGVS
Assay: Binding assay to the human A2A AR ([3H]CGS21680)
Details: 10 μM; [3H]CGS 21680 (15 nM), HEK293 cells; Table 2
Measurement name: hA2AAR % displ. at 10 μM (%)
Write down the numeric answer in % and omit the unit.

Compound: Clc1ccc(Nc2nc3ccccc3c3[nH]cnc23)cc1Cl [Compound 46]
Unit spec: %
hA2AAR % displ. at 10 μM: −0.8
//
Compound: c1ccc2c(c1)nc(Nc1ccc3c(c1)CCC3)c1nc(C3CCCC3)[nH]c12 [Compound 36]
Unit spec: %
hA2AAR % displ. at 10 μM: 8
//
Compound: c1ccc(CNc2nc3ccccc3c3[nH]c(C4CCCC4)nc23)cc1 [Compound 40]
Unit spec: %
hA2AAR % displ. at 10 μM: 77
//
Compound: c1ccc2c(c1)nc(Nc1ccc3cn[nH]c3c1)c1nc(C3CCCC3)[nH]c12 [Compound 37]
Unit spec: %
hA2AAR % displ. at 10 μM: 68
//
Compound: Clc1ccc(Nc2nc3ccccc3c3[nH]c(C4CCC4)nc23)cc1Cl [Compound 44]
Unit spec: %
hA2AAR % displ. at 10 μM: 0.4
//
Compound: OCc1cccc(Nc2nc3ccccc3c3[nH]c(C4CCCC4)nc23)c1 [Compound 35]
Unit spec: %
hA2AAR % displ. at 10 μM: 49
//
Compound: c1ccc2c(c1)nc(Nc1ccc3cc[nH]c3c1)c1nc(C3CCCC3)[nH]c12 [Compound 39]
Unit spec: %
hA2AAR % displ. at 10 μM: 74
//
Compound: Clc1ccc(Nc2nc3ccccc3c3[nH]c(C4CCCCCC4)nc23)cc1Cl [Compound 42]
Unit spec: %
hA2AAR % displ. at 10 μM: −2
//
Compound: COc1ccc(CNc2nc3ccccc3c3[nH]c(C4CCCC4)nc23)cc1 [Compound 38]
Unit spec: %
hA2AAR % displ. at 10 μM: 60
//
Compound: c1ccc(CCNc2nc3ccccc3c3[nH]c(C4CCCC4)nc23)cc1 [Compound 41]
Unit spec: %
hA2AAR % displ. at 10 μM: 91

Query: Param readout = hA2AAR % displ. at 10 μM; param system = human A2A AR (Homo sapiens (Human)); param query = Clc1ccc(Nc2nc3ccccc3c3[nH]c(-c4ccco4)nc23)cc1Cl [Compound 43] ; response: value
Reply: 70

Query: Param readout = hA2AAR % displ. at 10 μM; param system = human A2A AR (Homo sapiens (Human)); param query = Clc1ccc(Nc2nc3ccccc3c3[nH]c(C4CCCCC4)nc23)cc1Cl [Compound 45] ; response: value
Reply: −1

Query: Param readout = hA2AAR % displ. at 10 μM; param system = human A2A AR (Homo sapiens (Human)); param query = CCCCCc1nc2c(Nc3ccc(Cl)c(Cl)c3)nc3ccccc3c2[nH]1 [Compound 47] ; response: value
Reply: −1

----------
Biological target: human A3AR (Homo sapiens (Human))
Sequence (P0DMS8 whole entry): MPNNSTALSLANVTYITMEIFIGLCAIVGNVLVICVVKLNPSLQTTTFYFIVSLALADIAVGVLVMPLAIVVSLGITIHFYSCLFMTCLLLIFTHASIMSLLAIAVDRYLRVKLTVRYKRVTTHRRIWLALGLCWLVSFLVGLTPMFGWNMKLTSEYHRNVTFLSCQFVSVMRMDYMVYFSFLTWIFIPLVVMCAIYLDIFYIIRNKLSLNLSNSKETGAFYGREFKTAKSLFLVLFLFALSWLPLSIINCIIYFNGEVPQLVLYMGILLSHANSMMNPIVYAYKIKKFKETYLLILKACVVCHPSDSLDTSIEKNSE
Assay: Competitive binding assay to the human A3AR ([125I]I-AB-MECA)
Details: 1 h; 10 μM; [125I]I-AB-MECA (0.5 nM), CHO cells; Table 2; read-out: hA3AR % displ. at 10 μM
Recorded inhibition at 10 µM by entry
Write down the numeric answer in % and omit the unit.

Molecule: c1ccc2c(c1)nc(Nc1ccc3cc[nH]c3c1)c1nc(C3CCCC3)[nH]c12 [Compound 39]
inhibition at 10 µM (%): 89

Query: Return reported inhibition at 10 µM; argument: OCc1cccc(Nc2nc3ccccc3c3[nH]c(C4CCCC4)nc23)c1 [Compound 35]
Reply: 56

Query: Return reported inhibition at 10 µM; argument: CCCCCc1nc2c(Nc3ccc(Cl)c(Cl)c3)nc3ccccc3c2[nH]1 [Compound 47]
Reply: 84

Query: Return reported inhibition at 10 µM; argument: Cc1ccc(Nc2nc3ccccc3c3[nH]c(C4CCCC4)nc23)cc1 [Compound 31]
Reply: 87

Query: Return reported inhibition at 10 µM; argument: Clc1ccc(Nc2nc3ccccc3c3[nH]cnc23)cc1Cl [Compound 46]
Reply: 39

----------
Recorded inhibition at 10 µM by entry
Target: hA2BAR (Homo sapiens (Human))
Sequence (P29275 whole entry): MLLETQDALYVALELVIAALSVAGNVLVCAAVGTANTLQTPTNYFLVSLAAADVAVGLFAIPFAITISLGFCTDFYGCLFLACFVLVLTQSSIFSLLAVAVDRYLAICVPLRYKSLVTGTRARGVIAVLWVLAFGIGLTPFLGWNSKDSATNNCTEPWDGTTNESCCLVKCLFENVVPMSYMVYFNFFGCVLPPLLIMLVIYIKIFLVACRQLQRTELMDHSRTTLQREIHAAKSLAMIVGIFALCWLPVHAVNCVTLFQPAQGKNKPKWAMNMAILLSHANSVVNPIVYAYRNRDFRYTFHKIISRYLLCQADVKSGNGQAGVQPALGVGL
Test: Effect on NECA-induced cyclic AMP accumulation at A2B receptor; further: NECA (150 nM)-induced cyclic AMP accumulation
Assay type: cell-based
Details: read-out: hA2BAR % inhib. at 10 μM
Write down the numeric answer in % and omit the unit.

Example results:
Molecule: Cc1ccc(Nc2nc3ccccc3c3[nH]c(C4CCCC4)nc23)cc1
inhibition at 10 µM, %: -4.1
//
Molecule: c1ccc2c(c1)nc(Nc1ccc3c(c1)CCC3)c1nc(C3CCCC3)[nH]c12
inhibition at 10 µM, %: -10.7
//
Molecule: Clc1ccc(Nc2nc3ccccc3c3[nH]c(-c4ccco4)nc23)cc1Cl
inhibition at 10 µM, %: 9
//
Molecule: CCCCCc1nc2c(Nc3ccc(Cl)c(Cl)c3)nc3ccccc3c2[nH]1
inhibition at 10 µM, %: -9.3
//
Molecule: COc1ccc(CNc2nc3ccccc3c3[nH]c(C4CCCC4)nc23)cc1
inhibition at 10 µM, %: 0.3
//
Molecule: COc1ccc(Nc2nc3ccccc3c3[nH]c(C4CCCC4)nc23)cc1
inhibition at 10 µM, %: 7.3
//
Molecule: c1ccc(CNc2nc3ccccc3c3[nH]c(C4CCCC4)nc23)cc1
inhibition at 10 µM, %: -3.4
//
Molecule: Clc1ccc(Nc2nc3ccccc3c3[nH]cnc23)cc1Cl
inhibition at 10 µM, %: 10.2
//
Molecule: Clc1ccc(Nc2nc3ccccc3c3[nH]c(C4CCCC4)nc23)cc1
inhibition at 10 µM, %: -10.2
//
Molecule: Clc1ccc(Nc2nc3ccccc3c3[nH]c(C4CCCCCC4)nc23)cc1Cl
inhibition at 10 µM, %: -7.3

Query: Return reported inhibition at 10 µM; argument: c1ccc2c(c1)nc(Nc1ccc3cn[nH]c3c1)c1nc(C3CCCC3)[nH]c12
Reply: 5

Query: Return reported inhibition at 10 µM; argument: Clc1ccc(Nc2nc3ccccc3c3[nH]c(C4CCC4)nc23)cc1Cl
Reply: -5.5

Query: Return reported inhibition at 10 µM; argument: c1ccc2c(c1)nc(Nc1ccc3cc[nH]c3c1)c1nc(C3CCCC3)[nH]c12
Reply: 10.1

Query: Return reported inhibition at 10 µM; argument: c1ccc(Nc2nc3ccccc3c3[nH]c(C4CCCC4)nc23)cc1 [Compound 30, reference compound]
Reply: -6.8

Query: Return reported inhibition at 10 µM; argument: Clc1ccc(Nc2nc3ccccc3c3[nH]c(C4CCCC4)nc23)cc1Cl
Reply: -6.7

Query: Return reported inhibition at 10 µM; argument: c1ccc(CCNc2nc3ccccc3c3[nH]c(C4CCCC4)nc23)cc1
Reply: -11.6

Query: Return reported inhibition at 10 µM; argument: OCc1cccc(Nc2nc3ccccc3c3[nH]c(C4CCCC4)nc23)c1
Reply: -4.1

Query: Return reported inhibition at 10 µM; argument: Clc1ccc(Nc2nc3ccccc3c3[nH]c(C4CCCCC4)nc23)cc1Cl
Reply: -5.6
